assay comment: clinical
condition notes: human, in vivo, 200 mg, Cmax
assay readout: Cmax (ng/mL)

>  <compound>
O=C(CCCCCCC(=O)Nc1ccccc1)NO [Vorinostat]

>  <recorded number>
391

$$$$

====

assay comment: clinical
condition notes: human, in vivo, 30 mg, Tmax
assay readout: Tmax (h)

>  <smiles text>
O=C(CCCCCCC(=O)Nc1ccccc1)NO

>  <recorded number>
2.42

$$$$

====

assay comment: clinical
condition notes: human, in vivo, 200 mg, t½
assay readout: half-life

>  <smiles text>
O=C(CCCCCCC(=O)Nc1ccccc1)NO

>  <assay readout>
half-life

>  <result>
2.19 h

$$$$

====

assay comment: clinical
condition notes: human, in vivo, t½

>  <smiles text>
O=C(CCCCCCC(=O)Nc1ccccc1)NO

>  <half-life, h>
2.3

$$$$

====

assay comment: clinical
condition notes: human, in vivo, 40 mg, Cmax
assay readout: Cmax (ng/mL)

>  <smiles text>
O=C(CCCCCCC(=O)Nc1ccccc1)NO

>  <recorded number>
335

$$$$

====

assay comment: clinical
condition notes: human, in vivo, 20 mg, Tmax

>  <smiles text>
O=C(CCCCCCC(=O)Nc1ccccc1)NO

>  <value unit>
h

>  <Tmax>
2.25

$$$$

====

assay comment: clinical
condition notes: human, in vivo, 40 mg, Tmax
assay readout: Tmax (min)

>  <smiles text>
O=C(CCCCCCC(=O)Nc1ccccc1)NO

>  <value unit>
min

>  <recorded number>
58.8

$$$$

====

assay comment: clinical
condition notes: human, in vivo, 20 mg, Cmax
assay readout: Cmax (ng/mL)

>  <smiles text>
O=C(CCCCCCC(=O)Nc1ccccc1)NO

>  <assay readout>
Cmax

>  <value unit>
ng/mL

>  <recorded number>
318

$$$$

====

assay comment: clinical
condition notes: human, in vivo, 40 mg, AUC0-tau

>  <smiles text>
O=C(CCCCCCC(=O)Nc1ccccc1)NO

>  <AUC, ng·h/mL>
956

$$$$
